Source of measurements: PubChem BioAssay (Tox21)

test: p53 small molecule agonists, cell-based qHTS assay with rat liver microsomes: qHTS cell viability counter screen (AID 1963580); conditions: p53RE-bla HCT-116 + rat microsomes, ATP viability, 16 h; series mostly up to 66 µM; also: nearly all actives have a fitted effect of over 45% in size
Results filed as inconclusive are left out. Activity calls are given as the source filed them. Calls follow the shape of the full dose curve.
Write down the outcome that applies. Available outcomes: y for active, n for inactive

// outcome(item) with item = O=c1oc2ccccc2c(O)c1C1CCCc2ccccc21 (stereo unspecified)
n

Recorded test outcome, item `O=C(N[C@H]1CN2CCC1CC2)c1cc2ccoc2cn1`
n

What did this assay record as the result for `CC(=O)[O-].CC(=O)[O-].[Hg+2]` ?
y

// param item: `CCC(C)(c1ccc(O)cc1)c1ccc(O)cc1` ; yields the recorded call
n

Could you kindly confirm the outcome this assay logged for `O=S1(=O)OC(c2cc(Br)c(O)c(Br)c2)(c2cc(Br)c(O)c(Br)c2)c2ccccc21` ?
y

Please let me know the test result on file for `O=C(O)c1cccc(Cl)c1` .
n
